These entries and their values trace back to PubChem BioAssay.

experiment: plasmodial surface anion channel blockers, osmotic lysis – cell-based, P. falciparum Indochina, OD700, 2 h, primary screen (AID 1155);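 further: lysis reports solute entry through the parasite surface anion channel PSAC; channel blockers reduce lysis of infected cells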
condition details: P. falciparum Indochina infected erythrocytes, higher = more signal, called active from +8 up or from −8 down
Use true when the recorded z-score is no lower than 0.3; use false when it is lower.

Task item: Please check the record `COC(=O)[C@@]1(Cc2ccccc2)N=C(c2ccc(OCCCO)cc2)O[C@H]1c1ccccc1CN=[N+]=[N-]` and state if its z-score is at or above 0.3.
Reply: true

Task item: Please check the record COc1ccc(C(O)C2C=CC3C(=O)N(c4ccccc4)C(=O)C3N2Nc2ccc([N+](=O)[O-])cc2)c2ccccc12 (stereo unspecified) and state if its z-score is at or above 0.3.
Reply: true

Task item: Please check the record CC(C)(C)N1CC=CC23O[C@@H]4/C=C\CCCOC(=O)C4[C@H]2C(=O)N(CCCCCO)[C@@H]3C1=O (stereo partly specified) and state if its z-score is at or above 0.3.
Reply: false

Task item: Please check the record CCN(CC)c1ccc(N2CC=CC34O[C@@H]5C=CCCOC(=O)C5[C@H]3C(=O)N(C(C)CO)[C@@H]4C2=O)cc1 (stereo partly specified) and state if its z-score is at or above 0.3.
Reply: true

Task item: Please check the record `Cc1ccc(S[C@]2(C(=O)NCC(F)(F)F)CC(=O)N(Cc3ccccc3C(F)(F)F)[C@@H]2c2ccc(CO)cc2)cc1` and state if its z-score is at or above 0.3.
Reply: false

Task item: Please check the record NC(=O)N1C(=O)C2C(C1=O)C1C=C(CCCO)C2C(c2ccc(CN3CCCC3)cc2)N1Cc1cc2c(cc1Br)OCO2 (stereo unspecified) and state if its z-score is at or above 0.3.
Reply: true

Task item: Please check the record `O=C1[C@@H]2[C@@H](CC(COc3ccccc3)=C([C@H](O)CCc3ccccc3)[C@@H]2CO)C(=O)N1Cc1ccccc1` and state if its z-score is at or above 0.3.
Reply: true

Task item: Please check the record `O=C1O[C@@H](c2ccccc2)[C@@H](c2ccccc2)N2[C@@H](c3ccc(OCCO)cc3)[C@]3(C(=O)Nc4ccc(C#CCCO)cc43)[C@@H](C(=O)O)[C@H]12` and state if its z-score is at or above 0.3.
Reply: false

Task item: Please check the record `O=C1[C@H]2C=C(I)[C@H](C[C@@H]2c2ccccc2)[C@@]12CO2` and state if its z-score is at or above 0.3.
Reply: false

Task item: Please check the record `CN(C)CCCNC(=O)[C@@]1(Cc2ccccc2I)c2ccccc2C(=O)N(C2CCCCC2)[C@H]1c1ccc(CO)cc1` and state if its z-score is at or above 0.3.
Reply: false

Task item: Please check the record CCCCC(O)C1C=CC2C(=O)N(c3ccccc3)C(=O)C2N1Nc1ccc([N+](=O)[O-])cc1 (stereo unspecified) and state if its z-score is at or above 0.3.
Reply: true

Task item: Please check the record `CCCC[C@H]1OB(O)C[C@H]2C1=C(COc1ccccc1)C[C@H]1C(=O)C=CC(=O)[C@H]12` and state if its z-score is at or above 0.3.
Reply: false

Task item: Please check the record `CCCCCCc1nc(Cc2cc(OC)c(OC)c(OC)c2)cc2c1[Si](C(C)C)(C(C)C)O[C@H]2c1ccccc1` and state if its z-score is at or above 0.3.
Reply: true

Task item: Please check the record `O=C1C[C@@](C(=O)O)(c2ccc([N+](=O)[O-])cc2)[C@@H](c2ccc(CO)cc2)N1C1CCCCC1` and state if its z-score is at or above 0.3.
Reply: true

Task item: Please check the record `CCCC=C(CCC)[C@@H](NC(=O)OCC(C)C)c1ccc(C(=O)OC)cc1` and state if its z-score is at or above 0.3.
Reply: false

Task item: Please check the record `CC(C)(C)OC(=O)CC[C@@]1(C(=O)NCCN2CCOCC2)N=C(c2ccc(OCCCO)cc2)O[C@@H]1c1ccccc1CN=[N+]=[N-]` and state if its z-score is at or above 0.3.
Reply: true

Task item: Please check the record `COC(=O)[C@@]1(Cc2ccccc2)[C@H]2c3cc(C(=O)N(C)C)n(Cc4ccc(S(C)(=O)=O)cc4)c3C[C@H]2CN1C(=O)c1ccccc1` and state if its z-score is at or above 0.3.
Reply: true

Task item: Please check the record `O=C(NC1CC1)[C@@H]1c2ccccc2C(=O)N(Cc2ccc(OC(F)(F)F)cc2)[C@H]1c1ccc(CO)cc1` and state if its z-score is at or above 0.3.
Reply: false

Task item: Please check the record `O=C1O[C@H](c2ccccc2)[C@H](c2ccccc2)N2[C@H]1[C@@H](C(=O)N1CCN(c3ncccn3)CC1)[C@]1(C(=O)Nc3ccc(C#CCCO)cc31)[C@H]2c1ccc(O)cc1` and state if its z-score is at or above 0.3.
Reply: true

Task item: Please check the record `CCOC(=O)C1=C[C@@H](C(C)(C)C)N(S(=O)(=O)c2ccc(C)cc2)[C@H]1c1ccc(C#N)cc1` and state if its z-score is at or above 0.3.
Reply: true

---

Record form. Attribute: composite z-score. Fill in for each entry.
target system: Neurogenic locus notch homolog protein 3 (Homo sapiens) (UniProt Q9UM47)
Sequence (Q9UM47 whole entry, looked up): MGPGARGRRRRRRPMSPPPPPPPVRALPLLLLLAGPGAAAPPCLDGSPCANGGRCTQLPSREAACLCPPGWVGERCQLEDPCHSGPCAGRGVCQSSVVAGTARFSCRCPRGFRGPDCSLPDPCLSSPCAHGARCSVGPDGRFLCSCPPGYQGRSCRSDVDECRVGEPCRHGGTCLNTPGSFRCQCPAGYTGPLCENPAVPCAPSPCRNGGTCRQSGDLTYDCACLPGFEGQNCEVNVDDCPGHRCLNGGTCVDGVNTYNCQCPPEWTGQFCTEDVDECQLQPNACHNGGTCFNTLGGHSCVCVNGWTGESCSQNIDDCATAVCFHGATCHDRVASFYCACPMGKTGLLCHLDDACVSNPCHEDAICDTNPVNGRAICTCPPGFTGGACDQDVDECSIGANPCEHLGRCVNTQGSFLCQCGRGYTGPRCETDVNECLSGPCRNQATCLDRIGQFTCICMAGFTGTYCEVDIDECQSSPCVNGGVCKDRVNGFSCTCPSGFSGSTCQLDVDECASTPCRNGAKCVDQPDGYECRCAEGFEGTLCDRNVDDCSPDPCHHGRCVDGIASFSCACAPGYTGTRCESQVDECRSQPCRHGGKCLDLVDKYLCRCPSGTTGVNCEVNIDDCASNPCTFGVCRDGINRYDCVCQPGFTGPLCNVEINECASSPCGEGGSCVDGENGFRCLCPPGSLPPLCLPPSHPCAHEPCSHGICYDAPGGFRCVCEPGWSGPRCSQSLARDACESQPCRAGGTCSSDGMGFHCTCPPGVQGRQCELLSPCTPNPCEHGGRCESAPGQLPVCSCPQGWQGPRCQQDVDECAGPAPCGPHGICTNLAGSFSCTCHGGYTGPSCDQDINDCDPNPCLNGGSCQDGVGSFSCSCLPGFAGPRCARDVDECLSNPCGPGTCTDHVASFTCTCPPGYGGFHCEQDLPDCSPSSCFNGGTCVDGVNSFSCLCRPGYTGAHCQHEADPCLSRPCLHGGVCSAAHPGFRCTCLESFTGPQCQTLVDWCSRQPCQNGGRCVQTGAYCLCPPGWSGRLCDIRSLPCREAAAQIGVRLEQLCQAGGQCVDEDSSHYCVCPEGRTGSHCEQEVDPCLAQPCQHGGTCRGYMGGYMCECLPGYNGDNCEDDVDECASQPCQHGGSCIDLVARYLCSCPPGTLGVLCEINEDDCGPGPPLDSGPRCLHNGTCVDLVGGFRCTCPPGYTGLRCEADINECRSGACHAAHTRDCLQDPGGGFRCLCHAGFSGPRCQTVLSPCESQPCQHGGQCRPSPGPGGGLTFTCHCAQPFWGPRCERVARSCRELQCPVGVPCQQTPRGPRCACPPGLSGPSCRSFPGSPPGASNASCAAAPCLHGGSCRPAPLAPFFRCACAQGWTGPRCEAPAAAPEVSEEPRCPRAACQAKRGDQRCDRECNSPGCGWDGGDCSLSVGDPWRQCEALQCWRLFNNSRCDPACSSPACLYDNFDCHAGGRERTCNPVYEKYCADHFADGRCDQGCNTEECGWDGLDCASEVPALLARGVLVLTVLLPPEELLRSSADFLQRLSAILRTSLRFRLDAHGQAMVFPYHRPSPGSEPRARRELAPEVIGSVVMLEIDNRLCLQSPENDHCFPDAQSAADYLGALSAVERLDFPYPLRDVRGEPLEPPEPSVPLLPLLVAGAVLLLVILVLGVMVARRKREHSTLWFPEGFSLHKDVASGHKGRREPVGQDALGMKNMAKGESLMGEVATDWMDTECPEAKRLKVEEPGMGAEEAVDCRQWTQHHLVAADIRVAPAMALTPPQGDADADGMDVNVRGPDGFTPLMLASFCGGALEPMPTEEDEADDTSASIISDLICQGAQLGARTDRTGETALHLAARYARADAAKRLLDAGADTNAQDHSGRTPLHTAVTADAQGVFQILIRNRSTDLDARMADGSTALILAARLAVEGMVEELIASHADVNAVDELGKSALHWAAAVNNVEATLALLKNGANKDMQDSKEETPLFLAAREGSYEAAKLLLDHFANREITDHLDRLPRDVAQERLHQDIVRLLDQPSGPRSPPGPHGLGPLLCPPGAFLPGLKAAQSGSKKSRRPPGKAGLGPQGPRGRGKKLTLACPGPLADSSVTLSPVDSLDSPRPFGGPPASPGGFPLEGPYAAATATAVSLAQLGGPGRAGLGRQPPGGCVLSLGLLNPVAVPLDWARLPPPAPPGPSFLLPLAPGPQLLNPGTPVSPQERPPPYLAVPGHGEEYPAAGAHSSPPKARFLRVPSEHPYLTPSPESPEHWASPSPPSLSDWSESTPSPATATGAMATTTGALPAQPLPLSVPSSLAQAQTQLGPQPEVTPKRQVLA
experiment: small molecules binding NOTCH3 protein – biochemical, 635/667 nm fluorescence, primary screen (AID 1096)
condition details: small-molecule microarray, 635 nm fluorescence, higher = more signal

Task item: Determine from records and report composite z-score for `COC(=O)c1cccc([C@H]2OC(=CC(=O)OC(C)C)C[C@@H](c3cccc(C(=O)OC)c3)O2)c1`
Reply: 0.974

Task item: Determine from records and report composite z-score for NC(=O)N1C(=O)C2C(C1=O)C1C=C(CCCO)C2C(C2CC2)N1Cc1sc2ccccc2c1Cl (stereo unspecified)
Reply: 1.13

Task item: Determine from records and report composite z-score for CCCCC(O)C1C=CC2C(=O)N(c3ccccc3)C(=O)C2N1Nc1ccc(C#N)cc1 (stereo unspecified)
Reply: 0.473

Task item: Determine from records and report composite z-score for `O=C1O[C@H](c2ccccc2)[C@H](c2ccccc2)N2[C@H]1[C@@H](C(=O)N1CCN(c3ncccn3)CC1)[C@]1(C(=O)Nc3ccc(C#CCCO)cc31)[C@H]2c1ccc(O)cc1`
Reply: 0.504

Task item: Determine from records and report composite z-score for `COCC(=C=CC[C@H](O)c1ccccc1OCCO)C[C@H](O)COCc1ccccc1`
Reply: 0.271

Task item: Determine from records and report composite z-score for `Cc1ccc(S[C@]2(C(=O)NCCCN(C)C)CC(=O)N(Cc3ccccc3C(F)(F)F)[C@@H]2c2ccc(CO)cc2I)cc1`
Reply: -0.174

Task item: Determine from records and report composite z-score for `[N-]=[N+]=Nc1ccccc1C[C@]1(C(=O)N2CCOCC2)N=C(c2ccc(OCCCO)cc2)O[C@H]1c1ccccc1N=[N+]=[N-]`
Reply: 1.04

Task item: Determine from records and report composite z-score for `COC(=O)[C@]1(Cc2ccccc2)N=C(c2ccc(OCCCO)cc2)O[C@@H]1c1ccccc1CN=[N+]=[N-]`
Reply: 0.399

Task item: Determine from records and report composite z-score for CC(C)(C)N1CC=CC23O[C@@H]4/C=C\CCCOC(=O)C4[C@H]2C(=O)N(CCCCCO)[C@@H]3C1=O (stereo partly specified)
Reply: -0.457

Task item: Determine from records and report composite z-score for CCOc1cc(C(O)C2C=CC3C(=O)N(c4ccccc4)C(=O)C3N2Nc2ccccc2F)ccc1O (stereo unspecified)
Reply: 0.0983

Task item: Determine from records and report composite z-score for C=CC[C@]1(C(=O)NCC(O)CO)COC(c2ccc(OCCCO)cc2)=N1 (stereo partly specified)
Reply: -1.35

---

experiment: S. pombe growth modifiers, basal conditions – strain 972, OD600, 24 h, no modulator, primary screen (AID 1090);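 further: basal condition with compound alone and no growth modifier present; test concentration not given here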
condition details: S. pombe 972 growth, higher = more signal, called active from +8 up or from −8 down
Record form. Attribute: z-score. Fill in for each entry.
Just the number, please, no unit after it.

Task item: Determine from records and report z-score for `COCCOC(=O)N1C(=O)[C@@]2(c3ccccc31)[C@H](c1ccc(O)cc1)N1[C@H](c3ccccc3)[C@H](c3ccccc3)OC(=O)[C@H]1[C@@H]2C(=O)N1CCCCCCC1`
Reply: 0.621

Task item: Determine from records and report z-score for `CCOC(=O)C1=CC[C@@H](c2ccc(OC)cc2)N(S(=O)(=O)c2ccc(C)cc2)[C@H]1CC`
Reply: 0.971

Task item: Determine from records and report z-score for `O=C(O)[C@H](Cc1ccccc1)n1cc(C2(O)CCCCC2)nn1`
Reply: 0.255

Task item: Determine from records and report z-score for CC1CC/C=C\[C@H]2OC34C=CCN(C(C)(C)C)C(=O)[C@H]3N(CCCO)C(=O)[C@@H]4C2C(=O)O1 (some centres undefined)
Reply: 0.743

Task item: Determine from records and report z-score for `CC(C)NC(=O)[C@@]1(c2ccc([N+](=O)[O-])cc2)CC(=O)N(CC23CC4CC(CC(C4)C2)C3)[C@@H]1c1ccc(CO)cc1`
Reply: -0.822

Task item: Determine from records and report z-score for `C=CCOC(=O)[C@@H]1[C@H]2C(=O)O[C@H](c3ccccc3)[C@H](c3ccccc3)N2[C@H](c2ccc(OCCOC(=O)[C@H]3C[C@H]4C(=O)N5CCC[C@H]5C(=O)N4[C@H]3c3cccc(OCCO)c3)cc2)[C@@]12C(=O)Nc1ccc(I)cc12`
Reply: 2.38

Task item: Determine from records and report z-score for `COC(=O)[C@@]1(Cc2ccc(F)cc2)[C@H]2c3cc(C(=O)N(C)C)n(CCc4ccc(O)c(O)c4)c3C[C@H]2CN1C(=O)c1ccccc1`
Reply: 0.955

Task item: Determine from records and report z-score for `COC(=O)c1cccc([C@H]2OC(=CC(=O)OC(C)C)C[C@@H](c3cccc(C(=O)OC)c3)O2)c1`
Reply: -2.24

Task item: Determine from records and report z-score for CCCCC(O)C1C=CC2C(=O)N(c3ccccc3)C(=O)C2N1Nc1ccccc1 (centres undefined)
Reply: -1.32

Task item: Determine from records and report z-score for `CCOC(=O)C[C@H]1[C@H](OC(=O)Cc2ccc3c(c2)OCO3)[C@@H](NC(=O)Cc2ccc(OC)cc2)c2cc(OCCCO)ccc2N1C(=O)Cc1ccc(OC)cc1`
Reply: 0.531

Task item: Determine from records and report z-score for CN1C(=O)C2C(C3CC3)C=C3CN(Cc4cccc(Cl)c4)[C@@H]([C@@H](O)Cc4ccccc4)C3C2C1=O (some centres undefined)
Reply: -1.87

Task item: Determine from records and report z-score for C=CCC(OC(C)=O)[C@@H]1[C@@H](N(Cc2cc3ccccc3o2)C(=O)Cc2ccc(OC)cc2)c2cc(OCCCO)ccc2N1C(=O)c1ccc2ccccc2n1 (some centres undefined)
Reply: -0.844

Task item: Determine from records and report z-score for CC(C)(C)N1CC=CC23O[C@@H]4C=CCOC(=O)[C@@H]4[C@H]2C(=O)N(CCO)[C@@H]3C1=O (some centres undefined)
Reply: -0.0445

Task item: Determine from records and report z-score for `O=C(N1CCOCC1)[C@@]1(Cc2ccccc2)COC(c2ccc(OCCCO)cc2)=N1`
Reply: -5.55
